Numbers sourced from PubChem BioAssay (EPA / NIEHS).

Assay: ATG_TGFb_CIS: Attagene CIS-FACTORIAL HepG2 Assay for human Transforming Growth Factor (TGF) (AID 2282967)
Details: HepG2 Attagene CIS TGFb reporter, mRNA transcription; actives raise or lower the signal
Active and inactive are the calls of the source. How the source made its calls: active means hit-call score of the fitted dose curve at least 0.9, where 1 is the maximum; inactive means score below 0.9.
Choose one outcome from this list and give only that: 1 (yes) (active), 0 (no) (inactive)

Exercise: Hello, I am checking results. What call was entered for ClC1=C(Cl)[C@]2(Cl)[C@H]3[C@H]([C@H]4C=C[C@H]3C4)[C@@]1(Cl)C2(Cl)Cl ?
Solution: 0 (no)

Exercise: How was COP(=O)(OC)OC classified in this test?
Solution: 0 (no)
